Biological target: α5β3γ2 GABAA R (Homo sapiens, UniProt P18507+P31644)
Sequence (P31644 32-462): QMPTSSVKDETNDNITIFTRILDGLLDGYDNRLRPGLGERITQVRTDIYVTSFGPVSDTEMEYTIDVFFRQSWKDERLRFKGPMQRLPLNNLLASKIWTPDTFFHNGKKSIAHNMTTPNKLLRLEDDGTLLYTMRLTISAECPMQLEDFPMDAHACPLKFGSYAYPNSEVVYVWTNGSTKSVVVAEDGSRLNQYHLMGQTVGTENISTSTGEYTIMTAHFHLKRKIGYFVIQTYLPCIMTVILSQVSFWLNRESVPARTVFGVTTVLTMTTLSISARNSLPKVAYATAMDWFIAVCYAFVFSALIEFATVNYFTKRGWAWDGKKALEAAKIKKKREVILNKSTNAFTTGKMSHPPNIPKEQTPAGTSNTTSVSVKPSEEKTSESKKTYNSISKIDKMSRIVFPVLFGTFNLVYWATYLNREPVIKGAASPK
Sequence (P28472 26-473 partner): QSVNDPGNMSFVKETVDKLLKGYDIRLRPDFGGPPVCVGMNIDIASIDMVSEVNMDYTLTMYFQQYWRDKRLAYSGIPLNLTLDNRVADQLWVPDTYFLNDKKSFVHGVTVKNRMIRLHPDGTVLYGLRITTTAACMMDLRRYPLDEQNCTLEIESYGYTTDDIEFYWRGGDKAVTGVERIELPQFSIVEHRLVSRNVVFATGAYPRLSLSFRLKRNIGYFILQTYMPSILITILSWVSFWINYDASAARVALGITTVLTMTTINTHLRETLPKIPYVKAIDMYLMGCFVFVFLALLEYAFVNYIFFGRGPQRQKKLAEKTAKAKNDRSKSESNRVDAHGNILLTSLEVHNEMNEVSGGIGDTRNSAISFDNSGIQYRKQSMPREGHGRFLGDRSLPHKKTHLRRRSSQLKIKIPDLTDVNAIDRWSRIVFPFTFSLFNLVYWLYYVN
Sequence (P18507 40-475): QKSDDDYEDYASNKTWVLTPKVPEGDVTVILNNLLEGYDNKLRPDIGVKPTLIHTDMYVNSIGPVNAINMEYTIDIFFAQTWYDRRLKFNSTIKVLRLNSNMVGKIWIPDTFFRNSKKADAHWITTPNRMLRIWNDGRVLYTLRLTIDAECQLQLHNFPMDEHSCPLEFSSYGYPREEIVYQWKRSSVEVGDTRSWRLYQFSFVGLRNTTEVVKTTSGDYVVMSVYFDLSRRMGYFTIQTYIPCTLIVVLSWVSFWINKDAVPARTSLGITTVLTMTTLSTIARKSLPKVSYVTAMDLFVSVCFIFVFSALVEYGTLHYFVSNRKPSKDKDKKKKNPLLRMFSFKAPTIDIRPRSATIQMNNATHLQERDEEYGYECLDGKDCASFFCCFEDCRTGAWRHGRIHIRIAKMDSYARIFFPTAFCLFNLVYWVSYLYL
Test: Binding activity on GABAA R: inhibition of [3H]Ro15-1788 binding, α5 containing receptor
pKi: −log10 of the molar value.
Record form. Attribute: pKi. Fill in for each entry.

Input line: Recorded pKi of `Cn1cc2c(n1)-c1cc(Cl)ccc1-n1cnc(-c3nnc(C(F)(F)F)o3)c1C2` , please.
Output line: > 7.00

Input line: Recorded pKi of `CCn1cc2c(n1)-c1cc(Cl)ccc1-n1cnc(C3=N[C@@H](C(C)C)CO3)c1C2` , please.
Output line: > 7.00

Input line: Recorded pKi of `COc1ccc2c(c1)-c1nn(C)cc1Cc1c(-c3nnc(COCC(F)(F)F)o3)ncn1-2` , please.
Output line: > 7.00

Input line: Recorded pKi of `CCn1cc2c(n1)-c1cc(Cl)ccc1-n1cnc(-c3noc(C(C)(C)OC)n3)c1C2` , please.
Output line: > 7.00

Input line: Recorded pKi of COc1ccc2c(c1)-c1[nH]ncc1Cc1c(-c3noc(C4COCCO4)n3)ncn1-2 (centres unmarked) , please.
Output line: > 7.00

Input line: Recorded pKi of `COc1ccc2c(c1)-c1nn(C)cc1Cc1c(-c3noc(CC(C)(C)OC)n3)ncn1-2` , please.
Output line: 6.00 to 7.00

Input line: Recorded pKi of `COc1ccc2c(c1)-c1[nH]ncc1Cc1c(-c3noc(COCC(F)(F)F)n3)ncn1-2` , please.
Output line: > 7.00

Input line: Recorded pKi of `CC(C)n1cc2c(n1)-c1cc(Cl)ccc1-n1cnc(-c3cnn(Cc4ccccc4)c3)c1C2` , please.
Output line: 6.00 to 7.00

----------
Record form. Attribute: Ki. Fill in for each entry.
Molecular target: α5β3γ2 GABAA R (Homo sapiens, UniProt P18507+P31644)
Assay: Binding activity on GABAA R: inhibition of [3H]Ro15-1788 binding, α5 containing receptor
Conditions: ranges of the column heads; [3H]Ro15-1788, Ltk cell membranes
Description: Tissue culture and Membrane Preparation: The binding was performed on Ltk cells stably expressing GABAA R: […], α2β3γ2, α3β3γ2 and α5β3γ2 (provided by Merck Co., NJ, USA). Cells were seeded in 100 mm culture plates in DMEM/F12 medium containing 10% serum and antibiotics in 5% CO2 and allowed to grow for 1-2 days. […] Protein content was determined using BCA assay (Bio-Rad Labs, Reinach, Switzerland) with Bovine Serum Albumin (Sigma Aldrich, St. Louis, MO, USA) as the standard. […]

Input line: Recorded Ki of CC(C)n1cc2c(n1)-c1cc(Cl)ccc1-n1cnc(-c3noc(C(F)(F)F)n3)c1C2 [Compound 148] , please.
Output line: < 100 nM

Input line: Recorded Ki of CCn1cc2c(n1)-c1cc(OC)ccc1-n1cnc(-c3noc(C(F)(F)F)n3)c1C2 [Compound 158] , please.
Output line: < 100 nM

Input line: Recorded Ki of CN1C(=O)Cn2c(C3=N[C@@H](c4ccccc4)CO3)cnc2-c2ccc(Cl)cc21 [Compound 30] , please.
Output line: > 1000 nM

Input line: Recorded Ki of COc1ccc2c(c1)-c1nn(C(C)C)cc1Cc1c(-c3nc(C4CC4)no3)ncn1-2 [Compound 169] , please.
Output line: < 100 nM

Input line: Recorded Ki of CC(C)c1noc(-c2cnc3n2Cc2nncn2-c2cc(Cl)ccc2-3)n1 [Compound 58] , please.
Output line: > 1000 nM

Input line: Recorded Ki of Cn1cc2c(n1)-c1cc(Cl)ccc1-n1cnc(-c3nnc(C4CCOC4)o3)c1C2 (centres unmarked) [Compound 212] , please.
Output line: < 100 nM

Input line: Recorded Ki of COc1ccc2c(c1)-c1[nH]ncc1Cc1c(-c3noc(C(C)(C)C)n3)ncn1-2 [Compound 89] , please.
Output line: < 100 nM

Input line: Recorded Ki of CC(C)(C)C#Cc1ncn2c1Cc1cn[nH]c1-c1cc(Cl)ccc1-2 [Compound 63] , please.
Output line: < 100 nM

Input line: Recorded Ki of COCc1coc(-c2ncn3c2Cc2cn(C)nc2-c2cc(Cl)ccc2-3)n1 [Compound 284] , please.
Output line: < 100 nM

Input line: Recorded Ki of COc1ccc2c(c1)-c1[nH]ncc1Cc1c(C3=CCCC3)ncn1-2 [Compound 74] , please.
Output line: 100 to 1000 nM

Input line: Recorded Ki of CCn1cc2c(n1)-c1cc(Cl)ccc1-n1cnc(-c3nc(C4CCOC4)no3)c1C2 (centres unmarked) [Compound 192] , please.
Output line: < 100 nM

Input line: Recorded Ki of COCc1nc(-c2ncn3c2Cc2cn(C)nc2-c2cc(OC)ccc2-3)no1 [Compound 153] , please.
Output line: < 100 nM

Input line: Recorded Ki of CCn1cc2c(n1)-c1cc(Cl)ccc1-n1cnc(-c3nc(CN4CCCC4)no3)c1C2 [Compound 266] , please.
Output line: < 100 nM

Input line: Recorded Ki of COc1ccc2c(c1)-c1oncc1Cc1c(C3=N[C@@H](c4ccccc4)CO3)ncn1-2 [Compound 48] , please.
Output line: > 1000 nM

Input line: Recorded Ki of CCn1ncc2c1-c1cc(Cl)ccc1-n1cnc(-c3nc(C4CC4)no3)c1C2 [Compound 139] , please.
Output line: < 100 nM

Input line: Recorded Ki of COc1ccc2c(c1)-c1c(cnn1Cc1ccccc1)Cc1c(-c3nc(C)no3)ncn1-2 [Compound 7] , please.
Output line: < 100 nM

Input line: Recorded Ki of COc1ccc2c(c1)-c1nn(C)cc1Cc1c(-c3noc(C4(O)CC4)n3)ncn1-2 [Compound 363] , please.
Output line: < 100 nM

----------
Molecular target: α5β3γ2 GABAA R (Homo sapiens, UniProt P18507+P31644)
Experiment: Binding activity on GABAA R: inhibition of [3H]Ro15-1788 binding, α5 containing receptor
Quantity Measured: Ki

Input line: Recorded Ki of Clc1ccc2c(c1)-c1nn(CC3CCCO3)cc1Cc1c(-c3noc(C4COCCO4)n3)ncn1-2 (stereo not shown) [Compound 305] , please.
Output line: < 100 nM

Input line: Recorded Ki of Cc1noc(-c2ncn3c2Cc2cnn(Cc4ccccc4)c2-c2cc(Cl)ccc2-3)n1 [Compound 1] , please.
Output line: < 100 nM

Input line: Recorded Ki of COc1ccc2c(c1)-c1[nH]ncc1Cc1c(-c3nc(C(C)(C)C)no3)ncn1-2 [Compound 11] , please.
Output line: < 100 nM

Input line: Recorded Ki of COCC(COC)OCc1coc(-c2ncn3c2Cc2cn(C)nc2-c2cc(Cl)ccc2-3)n1 [Compound 332] , please.
Output line: < 100 nM

Input line: Recorded Ki of Cn1ncc2c1-c1cc(Cl)ccc1-n1cnc(C#CC(C)(C)C)c1C2 [Compound 102] , please.
Output line: < 100 nM

Input line: Recorded Ki of COc1ccc2c(c1)-c1nn(CC3CC3)cc1Cc1c(-c3nc(C(F)(F)F)no3)ncn1-2 [Compound 116] , please.
Output line: < 100 nM

Input line: Recorded Ki of COc1ccc2c(c1)-c1nn(C)cc1Cc1c(-c3noc(COC(C)(C)C)n3)ncn1-2 [Compound 296] , please.
Output line: < 100 nM

Input line: Recorded Ki of Clc1ccc2c(c1)-c1[nH]ncc1Cc1c(-c3nc(C4CCCC4)no3)ncn1-2 [Compound 115] , please.
Output line: < 100 nM

Input line: Recorded Ki of Cn1cc2c(n1)-c1cc(Cl)ccc1-n1cnc(-c3noc(C4(F)CC4)n3)c1C2 [Compound 218] , please.
Output line: < 100 nM

Input line: Recorded Ki of COC(C)(C)c1noc(-c2ncn3c2Cc2cn(CC4CCOC4)nc2-c2cc(Cl)ccc2-3)n1 (stereo not shown) [Compound 367] , please.
Output line: < 100 nM

Input line: Recorded Ki of CC(C)c1noc(-c2ncn3c2Cc2cn(CC4CCOC4)nc2-c2cc(Cl)ccc2-3)n1 (stereo not shown) [Compound 201] , please.
Output line: < 100 nM

Input line: Recorded Ki of COc1ccc2c(c1)-c1c(cnn1C)Cc1c(-c3noc(C(C)(C)OC)n3)ncn1-2 [Compound 186] , please.
Output line: 100 to 1000 nM

Input line: Recorded Ki of COc1ccc2c(c1)-c1nn(C)cc1Cc1c(-c3noc(C4COCCO4)n3)ncn1-2 (stereo not shown) [Compound 207] , please.
Output line: < 100 nM

Input line: Recorded Ki of COc1ccc2c(c1)-c1nn(Cc3ccccc3)cc1Cc1c(-c3nc(C)no3)ncn1-2 [Compound 16] , please.
Output line: < 100 nM

Input line: Recorded Ki of COc1ccc2c(c1)-c1nn(C)cc1Cc1c(-c3nc([C@H]4CCOC4)no3)ncn1-2 [Compound 252] , please.
Output line: < 100 nM

Input line: Recorded Ki of COC(C)(C)c1nc(-c2ncn3c2Cc2cn(CC4CCCO4)nc2-c2cc(Cl)ccc2-3)no1 (stereo not shown) [Compound 306] , please.
Output line: < 100 nM
